Attribution: ChEMBL document CHEMBL3433997

- experimental.system: Hexose transporter 1 (Plasmodium falciparum)
- assay.info: ST_JUDE_LEISH: Cytotoxicity at 2uM final concentration against transgenic Leishmania Mexicana promastigotes LmPfHT that are glucose transport deficient and complemented with the Plasmodium falciparum hexose transporter. Activity is measured by DNA content using SYBR green in vitro
- Type: functional
Known inhibition of a selection of compounds
Supply the numeric figure in %, leaving out any unit text.

Some entries whose results are on file:
>>> assay_result("C=C[C@H]1CN2CC[C@@H]1C[C@H]2[C@H](O)c1cc(-c2ccc(F)cc2)nc2ccc(OC)cc12")
4.6
>>> assay_result("CC[C@H]1CN2CC[C@H]1C[C@H]2C(O)c1cc(OC)nc2ccccc12 (stereo not given in full)")
0.13
>>> assay_result("CC(C)CCNC(=O)c1cc(C(=O)c2cc(F)ccc2O)cn(CCC(C)C)c1=O")
2.53
>>> assay_result("Cc1[nH]c2cc(Cl)ccc2c1C1=CCN(CCN2CCOc3c(Br)cccc3C2=O)CC1")
5.27

stdin: Name the recorded inhibition for CC(Cc1ccc(C2=CCNCC2)cc1)NCC(O)c1cccc(C(F)(F)F)c1 (stereo not given) .
stdout: -1.67
